Where do these numbers come from? They come from paper PMC2825117.

target: JMJD2A (Homo sapiens, UniProt O75164)
Sequence (O75164 whole entry): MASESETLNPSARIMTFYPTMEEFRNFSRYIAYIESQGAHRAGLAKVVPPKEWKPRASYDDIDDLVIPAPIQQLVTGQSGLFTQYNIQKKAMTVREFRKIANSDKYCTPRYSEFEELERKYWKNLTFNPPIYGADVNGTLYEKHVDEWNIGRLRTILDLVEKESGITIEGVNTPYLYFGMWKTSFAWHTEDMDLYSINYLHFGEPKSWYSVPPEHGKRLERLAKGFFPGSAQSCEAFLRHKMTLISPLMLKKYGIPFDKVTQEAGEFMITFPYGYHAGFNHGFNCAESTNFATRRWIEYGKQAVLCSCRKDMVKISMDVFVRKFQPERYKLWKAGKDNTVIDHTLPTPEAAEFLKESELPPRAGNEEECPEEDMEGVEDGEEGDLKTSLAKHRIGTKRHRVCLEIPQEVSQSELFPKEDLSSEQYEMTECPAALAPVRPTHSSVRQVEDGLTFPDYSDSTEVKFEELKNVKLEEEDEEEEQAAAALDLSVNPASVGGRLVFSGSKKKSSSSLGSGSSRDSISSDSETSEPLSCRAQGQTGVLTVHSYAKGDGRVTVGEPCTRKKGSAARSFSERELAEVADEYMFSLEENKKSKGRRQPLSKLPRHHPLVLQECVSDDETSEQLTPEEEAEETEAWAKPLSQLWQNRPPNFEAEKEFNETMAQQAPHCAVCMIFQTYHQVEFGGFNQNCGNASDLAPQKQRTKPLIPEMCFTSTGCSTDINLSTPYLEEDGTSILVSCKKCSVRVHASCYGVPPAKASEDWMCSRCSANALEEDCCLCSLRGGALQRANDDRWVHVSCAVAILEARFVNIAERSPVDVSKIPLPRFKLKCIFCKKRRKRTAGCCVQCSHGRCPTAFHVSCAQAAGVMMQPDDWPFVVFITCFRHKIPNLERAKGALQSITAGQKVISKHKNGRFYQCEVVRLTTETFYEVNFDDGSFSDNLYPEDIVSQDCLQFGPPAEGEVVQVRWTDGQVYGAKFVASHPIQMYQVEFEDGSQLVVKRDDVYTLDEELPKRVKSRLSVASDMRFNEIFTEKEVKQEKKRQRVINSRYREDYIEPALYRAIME
measured attribute: pIC50
// pIC50: -log10(molar conc.)

Case O=C(O)C(=O)N[C@H](Cc1ccc(OS(=O)(=O)c2ccccc2)cc1)C(=O)O [7d] , JMJD2A (Homo sapiens, UniProt O75164), pIC50 recorded as 4.77

====

molecular target: FIH (Homo sapiens, UniProt Q9NWT6)
Sequence (Q9NWT6 whole entry): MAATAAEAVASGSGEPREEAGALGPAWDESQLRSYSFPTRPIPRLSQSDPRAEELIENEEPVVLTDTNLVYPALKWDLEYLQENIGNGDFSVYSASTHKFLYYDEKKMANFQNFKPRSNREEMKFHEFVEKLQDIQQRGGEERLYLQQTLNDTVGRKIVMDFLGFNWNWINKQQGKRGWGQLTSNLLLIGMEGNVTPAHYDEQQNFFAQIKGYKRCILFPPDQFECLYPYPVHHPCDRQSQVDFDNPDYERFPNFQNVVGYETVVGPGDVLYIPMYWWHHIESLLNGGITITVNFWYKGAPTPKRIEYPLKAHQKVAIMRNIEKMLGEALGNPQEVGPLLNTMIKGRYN
measured attribute: IC50 (µM)
Report as a plain number; the unit µM is understood.

The compound listed as CC(C)(C)c1ccc(S(=O)(=O)Oc2ccc(C[C@@H](NC(=O)C(=O)O)C(=O)O)cc2)cc1 has a reported IC50 of 37.2

Could you now consider this next compound?
Memo: O=C(O)C(=O)N[C@H](Cc1ccc(OS(=O)(=O)c2ccc(Br)cc2)cc1)C(=O)O , reported IC50: 60.2
